Where do these numbers come from? They come from patent US20040161798A1.

Molecular target: T1, His6Gal80, P04387
T1 chain: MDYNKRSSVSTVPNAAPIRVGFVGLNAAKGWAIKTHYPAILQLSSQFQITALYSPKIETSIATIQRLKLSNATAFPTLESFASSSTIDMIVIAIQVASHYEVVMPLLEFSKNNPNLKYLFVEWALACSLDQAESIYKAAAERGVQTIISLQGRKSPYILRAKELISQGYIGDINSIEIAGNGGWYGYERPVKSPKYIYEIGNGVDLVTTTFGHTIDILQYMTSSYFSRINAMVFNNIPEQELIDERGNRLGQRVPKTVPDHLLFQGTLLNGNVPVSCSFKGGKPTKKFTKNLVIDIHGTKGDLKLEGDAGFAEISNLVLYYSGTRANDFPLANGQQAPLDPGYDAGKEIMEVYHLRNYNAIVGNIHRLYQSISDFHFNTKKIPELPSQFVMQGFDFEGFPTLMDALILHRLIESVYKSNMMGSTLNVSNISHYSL
Experiment: fluorescence polarization titration of fluorescein-labeled peptide in solution
pKd: −log10 of the molar value.

{"columns": ["BINDER", "pKd"],
 "data": [
  ["YDQDMQNNTFDDLFWKEGHR (modifications not checked) [Gal80bp]", 6.52]
]}
